Property: GI50 at 24 h; scope: individual compounds
# Assay remarks: Cytotoxicity against human HL60 cells assessed as growth inhibition after 24 hrs by resazurin dye based assay
# Assay type: cell-based, HL-60

- Compound: "C#CCOC(=O)[C@H](CC)[C@H]1CC[C@H](C)[C@H]([C@@H](C)[C@H](O)[C@H](C)C(=O)[C@H](CC)[C@H]2O[C@]3(C=C[C@@H](O)[C@]4(CC[C@@](C)([C@H]5CC[C@](O)(CC)[C@H](C)O5)O4)O3)[C@H](C)C[C@@H]2C)O1"
  Cmp: "="
  GI50 at 24 h [µM]: 30
- Compound: "CC[C@@H](C(=O)[C@@H](C)[C@@H](O)[C@H](C)[C@@H]1O[C@@H]([C@@H](CC)C(=O)OCC(F)(F)F)CC[C@@H]1C)[C@H]1O[C@]2(C=CC(=O)[C@]3(CC[C@@](C)([C@H]4CC[C@](O)(CC)[C@H](C)O4)O3)O2)[C@H](C)C[C@@H]1C"
  Cmp: ">"
  GI50 at 24 h [µM]: 100
- Compound: "Cc1ccc(C(=O)Nc2ccc(S(=O)(=O)O)c3cc(S(=O)(=O)O)cc(S(=O)(=O)O)c23)cc1NC(=O)c1cccc(NC(=O)Nc2cccc(C(=O)Nc3cc(C(=O)Nc4ccc(S(=O)(=O)O)c5cc(S(=O)(=O)O)cc(S(=O)(=O)O)c45)ccc3C)c2)c1 [SURAMIN]"
  Cmp: ">"
  GI50 at 24 h [µM]: 100
- Compound: "CC[C@@H](C(=O)[C@@H](C)[C@@H](O)[C@H](C)[C@@H]1O[C@@H]([C@@H](CC)C(=O)NCCc2ccc(F)cc2)CC[C@@H]1C)[C@H]1O[C@]2(C=CC(=O)[C@]3(CC[C@@](C)([C@H]4CC[C@](O)(CC)[C@H](C)O4)O3)O2)[C@H](C)C[C@@H]1C"
  Cmp: "="
  GI50 at 24 h [µM]: 94.7
- Compound: "C#CCNC(=O)[C@H](CC)[C@H]1CC[C@H](C)[C@H]([C@@H](C)[C@H](O)[C@H](C)C(=O)[C@H](CC)[C@H]2O[C@]3(C=CC(=O)[C@]4(CC[C@@](C)([C@H]5CC[C@](O)(CC)[C@H](C)O5)O4)O3)[C@H](C)C[C@@H]2C)O1"
  Cmp: "="
  GI50 at 24 h [µM]: 38.6

---

# Assay remarks: Cytotoxicity against human HL60 cells assessed as growth inhibition after 24 hrs by resazurin dye based assay
# Type: cell-based, HL-60

- Sample smiles: "C#CCNC(=O)[C@H](CC)[C@H]1CC[C@H](C)[C@H]([C@@H](C)[C@H](O)[C@H](C)C(=O)[C@H](CC)[C@H]2O[C@]3(C=C[C@@H](NCC#C)[C@]4(CC[C@@](C)([C@H]5CC[C@](O)(CC)[C@H](C)O5)O4)O3)[C@H](C)C[C@@H]2C)O1"
  GI50 at 24 h, µM: 38.9
- Sample smiles: "C#CCNC(=O)[C@H](CC)[C@H]1CC[C@H](C)[C@H]([C@@H](C)[C@H](O)[C@H](C)C(=O)[C@H](CC)[C@H]2O[C@]3(C=C[C@@H](O)[C@]4(CC[C@@](C)([C@H]5CC[C@](O)(CC)[C@H](C)O5)O4)O3)[C@H](C)C[C@@H]2C)O1"
  GI50 at 24 h, µM: 35.5
- Sample smiles: "CC[C@@H](C(=O)[C@@H](C)[C@@H](O)[C@H](C)[C@@H]1O[C@@H]([C@@H](CC)C(=O)ONC(=O)c2ccccc2)CC[C@@H]1C)[C@H]1O[C@]2(C=C[C@@H](O)[C@]3(CC[C@@](C)([C@H]4CC[C@](O)(CC)[C@H](C)O4)O3)O2)[C@H](C)C[C@@H]1C"
  GI50 at 24 h, µM: 3.58
- Sample smiles: "CC[C@@H](C(=O)[C@@H](C)[C@@H](O)[C@H](C)[C@@H]1O[C@@H]([C@@H](CC)C(=O)ONC(=O)c2ccccc2O)CC[C@@H]1C)[C@H]1O[C@]2(C=C[C@@H](O)[C@]3(CC[C@@](C)([C@H]4CC[C@](O)(CC)[C@H](C)O4)O3)O2)[C@H](C)C[C@@H]1C"
  GI50 at 24 h, µM: 2.12
